Listing: IC50 of selected compounds
# experimental.target: Human HSP90 alpha (Homo sapiens, UniProt P07900)
# Construct: made in house; host or cells: E. coli BL21 codon plus (Stratagene)
# protocol.notes: Measurement of HSP90 enzyme inhibitory activity (ATPase, malachite green)
# Format: biochemical
# experimental.parameters: purified human HSP90 alpha, 1 mM ATP added, 37° C., two hours; read-out: Enzyme inhibitory activity (IC50, μM) Human HSP 90α
State just the number; it will be interpreted in µM.

Illustrative cases are given below, each with its answer.
>  <compound>
Nc1nc(SCc2ccccc2)nc(-c2cc(OCc3ccccc3)c(Cl)cc2Cl)n1

>  <val>
1.2

$$$$
>  <compound>
CC(=O)NCCCSc1cc(-c2c(Cl)cc3c4c(cccc24)COC3)nc(N)n1

>  <val>
2.1

$$$$
>  <compound>
NC(=O)CSc1cc(-c2c(Cl)cc3c4c(cccc24)COC3)nc(N)n1

>  <val>
1.3

$$$$
>  <compound>
Nc1nc(SC2CCCCC2)nc(-c2c(Cl)cc3c4c(cccc24)COC3)n1

>  <val>
1.1

$$$$
>  <compound>
COc1ccc(OC)c(Sc2nc(N)nc(-c3c(Cl)cc4c5c(cccc35)COC4)n2)c1

>  <val>
1.9

$$$$
>  <compound>
COc1ccc(OC)c(Sc2cc(-c3cc(OCC#N)c(Cl)cc3Cl)nc(N)n2)c1

>  <val>
1.7

$$$$
>  <compound>
CC(=O)NCCCSc1nc(N)nc(-c2c(Cl)cc3c4c(cccc24)COC3)n1

>  <val>
2.8

$$$$
>  <compound>
CC(CSc1cc(-c2c(Cl)cc3c4c(cccc24)COC3)nc(N)n1)C(=O)NCCO (stereo not drawn)

>  <val>
2.8

$$$$

Please look at this compound and report its IC50: COc1ccc(OC)c(Sc2cc(-c3ccc(OCC(N)=O)cc3C)nc(N)n2)c1
1.5

Please look at this compound and report its IC50: CC(=O)NCCSc1cc(-c2c(Cl)cc3c4c(cccc24)COC3)nc(N)n1
2.1
